Values compiled from patent US20250361288A1.

system name: T1, human LTβR extracellular domain fused with an Fc fragment at the C-terminus (human, UniProt P36941 31-227)
T1 construct: extracellular domain; Bought; also called hLTβR; not shown: Fc fragment at the C-terminus
T1 sequence (P36941 31-227): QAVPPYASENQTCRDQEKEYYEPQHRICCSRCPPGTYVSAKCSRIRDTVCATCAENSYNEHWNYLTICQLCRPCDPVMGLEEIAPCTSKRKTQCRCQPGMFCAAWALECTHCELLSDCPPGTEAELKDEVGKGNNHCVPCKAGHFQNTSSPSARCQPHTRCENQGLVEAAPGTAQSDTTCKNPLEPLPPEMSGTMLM
measurement description: ELISA on coated target-Fc
measured parameter: pEC50
// returns pEC50 (minus log10 of molar concentration), number only

These solved cases illustrate the format of a correct answer.
{"binder": "LIGHT-2 (ligand, Printed mutations: R189S, W198Q, R228L; Soluble protein carries an N-terminal His tag) DGPAGSWEQLIQERRSHEVNPAAHLTGANSSLTGSGGPLLWETQLGLAFLRGLSYHDGALVVTKAGYYYIYSKVQLGGVGCPLGLASTITHGLYKRTPRYPEELELLVSQQSPCGSATSSSRVWQDSSFLGGVVHLEAGEKVVVRVLDERLVRLLDGTRSYFGAFMV", "pEC50": 9.48}
{"binder": "LIGHT-89 (ligand, Soluble protein carries an N-terminal His tag) DGPAGSWEQLIQERRSHEVNPTAHLTGANSSLTGSGGPLLWETQLGLAFLRGLSYHDGALVVTKAGYYYIYSKVQLRGVGCPLGLARTITHGLYKRTPRYLEELELLVSQQSPCGRATSSSRVWQDSSFLGGVVHLEAGEKVVVRVLDERLVRLLDGTRSYFGAFMV", "pEC50": 9.20}

Consider the additional binder presented here.
stdin: Supply recorded pEC50 for LIGHT-1 (ligand, Printed mutations: V152M, W198Q, R228L; Soluble protein carries an N-terminal His tag) DGPAGSWEQLIQERRSHEVNPAAHLTGANSSLTGSGGPLLWETQLGLAFLRGLSYHDGALVVTKAGYYYIYSKVQLGGMGCPLGLASTITHGLYKRTPRYPEELELLVSQQSPCGRATSSSRVWQDSSFLGGVVHLEAGEKVVVRVLDERLVRLLDGTRSYFGAFMV here.
stdout: 9.58
